# target_or_test_system: T1, EphA2 ligand binding domain (EphA2 LBD), residues 28-200 (UniProt P29317 28-200)
# T1 construct: range 28-200; Expressed in E. coli; also called soluble EphA2 LBD; soluble monomeric EphA2 LBD
# T1 sequence (P29317 other isoform, or with tags, fused parts or gaps limits assumed, form in doubt): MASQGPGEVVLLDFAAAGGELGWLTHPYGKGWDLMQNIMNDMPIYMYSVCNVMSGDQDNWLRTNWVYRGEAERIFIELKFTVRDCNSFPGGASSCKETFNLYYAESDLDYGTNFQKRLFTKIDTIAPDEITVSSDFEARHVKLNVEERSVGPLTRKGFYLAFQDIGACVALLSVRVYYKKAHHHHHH
# test_description: ITC, soluble EphA2 LBD and peptide
# Protocol: For ITC, all peptides are dissolved in DMSO and both the EphA2 LBD and the peptides are diluted to obtain a final buffer containing 9.5 mM HEPES, pH 7.9, 95 mM NaCl, and 5% DMSO. The experiments are carried out at 296 K (23° C.) using an ITC200 calorimeter (Microcal). Two-microliter aliquots of a peptide solution are injected into the cell containing 205 μL EphA2 LBD. […] Experimental data are analyzed using the Origin software package (Microcal). […]
Where no end group is shown, it is not given here. [ ]: non-standard residue; d: D form. The star is where a group is joined. Biotin = O=C1N[C@H]2[C@H](CS[C@H]2CCCCC(=O)*)N1; βAla = NCCC(=O)O; Cam = NC(=O)C*
parameter: N (binding stoichiometry)
Give bare numbers.

The cases that follow already have their N (binding stoichiometry) on record.
{"columns": ["binder", "N (binding stoichiometry)"],
 "data": [
  ["C(Cam)GAWLAYPDSVPYRPK(Biotin) (also called monomer (10); monomeric peptide (10)) [CcamGA-WLA-YRPK-bio]", 0.8],
  ["CGAWLAYPDSVPYRPK (also: N-terminally disulfide-linked homodimer, disulfide at 1, other end not in the chain, also called dimer (5); dimeric peptide (5)) [CGA-WLA-YRPK dimer (N-ter)]", 2.2]
]}

Batch lookup, N (binding stoichiometry) per entry.
1. [βAla]WLAYPDSVPYGSGC (also: homodimer, disulfide at 15, other end not in the chain, C-terminally disulfide-linked homodimer made from monomer (9*); also called dimer (1); dimeric peptide (1)) [βA-WLA-YGSGC dimer (C-ter)]
2. CGAWLAYPDSVPYR (also: homodimer: N-terminal Cys of two chains joined by disulfide, N-terminally disulfide-linked homodimer made from monomer (15*); also called dimer (4)) [CGA-WLA-YR dimer (N-ter)]
3. [βAla]WLAYPDSVPYRPKC (also: homodimer, disulfide at 15, other end not in the chain, C-terminally disulfide-linked homodimer made from monomer (19*); also called dimer (2); dimeric peptide (2)) [βA-WLA-YRPKC dimer (C-ter)]

## Output
1: 1.7; 2: 2; 3: 2
